Target or system UniProtKB Q06187: recorded IC50 listed per item.
Sequence (Q06187 whole entry): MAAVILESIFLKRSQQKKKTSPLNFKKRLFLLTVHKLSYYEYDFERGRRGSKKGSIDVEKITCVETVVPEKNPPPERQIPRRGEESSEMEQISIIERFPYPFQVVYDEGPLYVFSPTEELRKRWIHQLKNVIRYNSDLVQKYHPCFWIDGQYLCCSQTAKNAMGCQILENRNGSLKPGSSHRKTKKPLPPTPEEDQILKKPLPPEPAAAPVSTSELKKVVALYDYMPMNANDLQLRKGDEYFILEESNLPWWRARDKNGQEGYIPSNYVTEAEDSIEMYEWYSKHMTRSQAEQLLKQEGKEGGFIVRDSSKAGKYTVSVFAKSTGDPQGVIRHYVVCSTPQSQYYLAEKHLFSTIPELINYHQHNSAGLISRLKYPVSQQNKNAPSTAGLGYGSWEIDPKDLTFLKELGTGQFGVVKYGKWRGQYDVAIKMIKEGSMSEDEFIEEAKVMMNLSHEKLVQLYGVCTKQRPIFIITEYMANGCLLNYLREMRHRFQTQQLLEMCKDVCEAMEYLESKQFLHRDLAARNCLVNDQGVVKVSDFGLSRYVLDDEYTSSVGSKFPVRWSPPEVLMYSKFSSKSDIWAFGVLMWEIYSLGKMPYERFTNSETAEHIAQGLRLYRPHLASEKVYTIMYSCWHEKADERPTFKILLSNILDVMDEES

Before answering, review these 3 worked examples.
{"columns": ["Mol", "Observed"],
 "data": [
  ["C=CC(=O)N1CCC[C@@H](Nc2nc(Nc3cc(C)ns3)nc3ccoc23)C1", "≤ 0.05 µM"],
  ["C=CC(=O)N1CCC[C@@H](Nc2nc(Nc3cnn(CCOC)c3)nc3ccsc23)C1", "≤ 0.05 µM"],
  ["C=CC(=O)N1CC(CNc2nc(Nc3cc(C(C)C)no3)nc3ccsc23)C1", "0.05 to 0.1 µM"]
]}

Okay, next one:
Task: For UniProtKB Q06187, give the measured IC50 of the entry C=CC(=O)N1CC[C@@H](Nc2nc(Nc3cnn(CC)c3)nc3ccsc23)C1
Result: ≤ 0.05 µM
